# Test system: PAMPA
# run conditions: Acceptor Concentration (uM) – ELSD Detection / [row 9]
measurement type: Acceptor Concentration (µM)
Express the result in µM but write the number alone.

| compound | Acceptor Concentration [µM] |
| --- | --- |
| CCCCC[C@@H]1OC(=O)[C@@H](C)N(C)C(=O)[C@H](CCCCC)OC(=O)[C@@H](C)N(C)C(=O)[C@H](CCCCC)OC(=O)[C@@H](C)N(C)C(=O)[C@H](CCCCC)OC(=O)[C@@H](C)N(C)C1=O [Compound C1.4, ent-verticilide] | 105 |

Provide Acceptor Concentration value for the following compound: CCCCC[C@@H]1OC(=O)[C@@H](C)N(C)C(=O)[C@H](CCCCC)OC(=O)[C@@H](C)N(C)C(=O)[C@H](CCCCC)OC(=O)[C@@H](C)N(C)C(=O)[C@H](CCCCC)OC(=O)[C@@H](C)N(C)C(=O)[C@H](CCCCC)OC(=O)[C@@H](C)N(C)C(=O)[C@H](CCCCC)OC(=O)[C@@H](C)N(C)C1=O 25.8

Provide Acceptor Concentration value for the following compound: CCCCC[C@@H]1OC(=O)[C@@H](C)N(C)C(=O)[C@H](CCCCC)OC(=O)[C@@H](C)N(C)C(=O)[C@H](CCCCC)OC(=O)[C@@H](C)N(C)C1=O [Compound C1.3, ent-verticilide B1] 103

Provide Acceptor Concentration value for the following compound: CCCCC[C@@H]1OC(=O)[C@@H](C)N(C)C(=O)[C@H](CCCCC)OC(=O)[C@@H](C)N(C)C(=O)[C@H](CCCCC)OC(=O)[C@@H](C)N(C)C(=O)[C@H](CCCCC)OC(=O)[C@@H](C)N(C)C(=O)[C@H](CCCCC)OC(=O)[C@@H](C)N(C)C1=O 61.3

---

# run conditions: Well 4 / %R; Well 4; UV detection
Non-standard residues stand in square brackets, D forms with d. Residues, ends and D or L forms follow the SMILES beside them. *: point of attachment. Ahp(2) = CCCCC[C@H](N)C(=O)O; dNMeA = CN[C@H](C)C(=O)O; Boc = CC(C)(C)OC(=O)*; OBn = c1ccc(CO*)cc1
measurement type: % recovery (%)
Express the result in % but write the number alone.

| compound | measurement type | endpoint unit | reported measurement |
| --- | --- | --- | --- |
| CCCCC[C@H](NC(=O)[C@@H](C)N(C)C(=O)[C@H](CCCCC)NC(=O)[C@@H](C)N(C)C(=O)[C@H](CCCCC)NC(=O)[C@@H](C)N(C)C(=O)[C@H](CCCCC)NC(=O)[C@@H](C)N(C)C(=O)OC(C)(C)C)C(=O)OCc1ccccc1 [Compound L2.5] (Boc-[dNMeA][Ahp(2)][dNMeA][Ahp(2)][dNMeA][Ahp(2)][dNMeA][Ahp(2)]-OBn) | % recovery | % | 90 |

Provide % recovery value for the following compound: CCCCC[C@H](OC(=O)[C@@H](C)N(C)C(=O)[C@H](CCCCC)OC(=O)[C@@H](C)N(C)C(=O)[C@H](CCCCC)OC(=O)[C@@H](C)N(C)C(=O)[C@H](CCCCC)OC(=O)[C@@H](C)N(C)C(=O)[C@H](CCCCC)OC(=O)[C@@H](C)N(C)C(=O)[C@H](CCCCC)OC(=O)[C@@H](C)N(C)C(=O)OC(C)(C)C)C(=O)OCc1ccccc1 83
